assayInfo: Toxicity in po dosed mouse
Type: organism-based
setupConditions: in vivo
Kindly apply the following: Satisfied if LD50 is less than 600 mg/kg, Not satisfied in every other case.

Recorded results for 3 molecules are shown here.
molecule	categoryLabel
CC(C(=O)O)c1ccc2onc(-c3ccc(Cl)cc3)c2c1 (configuration not stated)	Not satisfied
CC(C(=O)O)c1ccc2c(-c3ccc(F)cc3)noc2c1 (configuration not stated)	Satisfied
CC(C(=O)O)c1cccc2c(-c3ccc(Cl)cc3)noc12 (configuration not stated)	Satisfied

Shifting focus to the molecule that follows.
Problem: Is the reported LD50 for CC(C(=O)O)c1cccc2c(-c3ccccc3)noc12 (configuration not stated) strictly below 600 mg/kg?
Solution: Not satisfied
